Listed compounds paired with reported IC50
# Study system: recombinant human NF-kappaB-inducing kinase (NIK/MAP3K14) (Homo sapiens (Human))
# Experimental protocol: Inhibition of auto-phosphorylation of recombinant human NIK/MAP3K14 activity (AlphaScreen)
# Assay type: biochemical
# Details: averaged values over all measurements on all batches
Measured parameter: IC50 (nM)

* C[C@]1(CO)CNc2c(C#N)cc(-c3ccnc(Nc4cn(CC(F)F)nc4OC4CC4)n3)cc21 [Compound 218] | 2.8
* CNC(=O)c1cc(Nc2nccc(-c3cc(C#N)c4c(c3)[C@@](C)(CO)CN4)n2)n(CCC2CC2)n1 [Compound 198] | 6.8
* Cc1cc(Nc2nccc(-c3cc(C#N)c4c(c3)[C@@](C)(CO)CN4)n2)n(CC(=O)N2CCCC2)n1 [Compound 88] | 6.8
* CCOCCn1nc(C)cc1Nc1nccc(-c2cc(C#N)c3c(c2)[C@@](C)(CO)CN3)n1 [Compound 44] | 4.5
* CC(C)CCc1nn(Cc2cncn2C)cc1Nc1nccc(-c2cc(C#N)c3c(c2)[C@@](C)(CO)CN3)n1 [Compound 130] | 6
* Cc1cc(Nc2nccc(-c3cc(C#N)c4c(c3)[C@@](C)(CO)CN4)n2)nn1CC1CCOCC1 [Compound 60] | 2
* CC(C)n1ccc(Nc2nccc(-c3cc(C#N)c4c(c3)[C@](C)(CO)CN4)n2)n1 [Compound 31] | 14

====

# Study system: recombinant human NF-kappaB-inducing kinase (NIK/MAP3K14) (Homo sapiens (Human), UniProt Q99558)
# Sequence (Q99558 whole entry): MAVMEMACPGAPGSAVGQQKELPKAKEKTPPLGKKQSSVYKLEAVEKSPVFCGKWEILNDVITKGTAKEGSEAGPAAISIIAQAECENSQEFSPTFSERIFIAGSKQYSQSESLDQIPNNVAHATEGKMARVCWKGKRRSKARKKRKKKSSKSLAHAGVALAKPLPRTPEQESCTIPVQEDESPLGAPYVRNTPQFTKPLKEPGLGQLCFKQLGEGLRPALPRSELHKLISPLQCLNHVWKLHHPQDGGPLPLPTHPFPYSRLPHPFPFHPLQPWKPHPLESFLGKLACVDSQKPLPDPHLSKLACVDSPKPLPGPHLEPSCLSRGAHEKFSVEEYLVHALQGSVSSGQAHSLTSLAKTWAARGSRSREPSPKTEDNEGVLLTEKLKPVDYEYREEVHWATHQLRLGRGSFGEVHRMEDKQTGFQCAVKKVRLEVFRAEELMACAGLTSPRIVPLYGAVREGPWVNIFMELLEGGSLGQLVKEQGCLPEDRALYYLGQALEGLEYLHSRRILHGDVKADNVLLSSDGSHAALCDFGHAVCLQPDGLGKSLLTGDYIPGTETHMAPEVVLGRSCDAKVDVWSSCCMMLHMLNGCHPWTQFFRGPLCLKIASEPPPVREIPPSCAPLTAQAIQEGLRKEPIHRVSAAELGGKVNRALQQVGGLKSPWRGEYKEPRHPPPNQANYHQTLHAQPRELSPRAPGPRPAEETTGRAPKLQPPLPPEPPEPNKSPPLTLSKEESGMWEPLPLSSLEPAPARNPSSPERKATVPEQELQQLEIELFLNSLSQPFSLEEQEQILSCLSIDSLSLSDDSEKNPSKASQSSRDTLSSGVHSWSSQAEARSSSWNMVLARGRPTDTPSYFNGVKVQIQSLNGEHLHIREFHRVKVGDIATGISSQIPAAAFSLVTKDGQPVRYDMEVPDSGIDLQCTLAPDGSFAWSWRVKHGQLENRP
# Experimental protocol: Inhibition of auto-phosphorylation of recombinant human NIK/MAP3K14 activity (AlphaScreen)
# Assay type: biochemical
# Details: averaged values over all measurements on all batches
Measured parameter: IC50 (nM)

* CNC(=O)c1cc(Nc2nccc(-c3cc(C#N)c4c(c3)[C@@](C)(CO)CN4)n2)n(C(C)C)n1 [Compound 183] | 22
* Cn1cc(Nc2nccc(-c3cc(C#N)c4c(c3)[C@@](C)(CO)CN4)n2)c(CN2CCCC2=O)n1 [Compound 90] | 5.7
* Cn1cc(Nc2nccc(-c3cc(C#N)c4c(c3)[C@@](C)(CO)CN4)n2)c(C(F)(F)F)n1 [Compound 64] | 1.9
* COCCCn1ncc(Nc2nccc(-c3cc(C#N)c4c(c3)[C@@](C)(CO)CN4)n2)c1CCC(C)C [Compound 104] | 3.4
* Cc1cc(Nc2nccc(-c3cc(C#N)c4c(c3)[C@@](C)(CO)CN4)n2)n(CC(=O)O)n1 [Compound 135] | 5.1
* CN(CCO)C[C@]1(C)CNc2c(C#N)cc(-c3ccnc(Nc4ccn(C)n4)n3)cc21 [Compound 173] | 162
* Cc1cc(Nc2nccc(-c3cc(C#N)c4c(c3)[C@@](C)(CO)CN4)n2)n(CC2CCCCO2)n1 (single isomer, unassigned) [Compound 68] | 5.3
* Cc1cc(Nc2nccc(-c3cc(C#N)c4c(c3)[C@@](C)(CO)CN4)n2)n(CC(F)F)n1 [Compound 186] | 6.5
* Cc1cc(Nc2nccc(-c3cc(C#N)c4c(c3)[C@@](C)(CO)CN4)n2)n(CC(=O)N(C)C2CC2)n1 [Compound 89] | 3.7
* Cc1cc(Nc2nccc(-c3cc(C#N)c4c(c3)[C@@](C)(CO)CN4)n2)n(CCC2(C)COC2)n1 [Compound 154] | 4.9
* Cc1cc(Nc2nccc(-c3cc(C#N)c4c(c3)[C@@](C)(CO)CN4)n2)n(CC2(C)COC2)n1 [Compound 111] | 9.3
* COC(C)(C)CCn1nc(Nc2nccc(-c3cc(C#N)c4c(c3)[C@@](C)(CO)CN4)n2)cc1C [Compound 58] | 1.5
* CN1CCC(n2ccc(Nc3nccc(-c4cc(C#N)c5c(c4)[C@@](C)(CO)CN5)n3)n2)CC1 [Compound 37] | 2
* COC(C)Cn1nc(C)cc1Nc1nccc(-c2cc(C#N)c3c(c2)[C@@](C)(CO)CN3)n1 (single isomer, unassigned) [Compound 78] | 9.8
* C[C@@]1(CO)CNc2c(C#N)cc(-c3ccnc(Nc4cnn(CCC5CC5)c4CN4CCOCC4)n3)cc21 [Compound 159] | 10
* CN1CCC(n2nccc2Nc2nccc(-c3cc(C#N)c4c(c3)[C@@](C)(CO)CN4)n2)CC1 [Compound 38] | 47
* Cc1cc(Nc2nccc(-c3cc(C#N)c4c(c3)[C@@](C)(CO)CN4)n2)n(CC2COCCO2)n1 (single isomer, unassigned) [Compound 84] | 11
* CC(C)CCn1nc(CO)cc1Nc1nccc(-c2cc(C#N)c3c(c2)[C@@](C)(CO)CN3)n1 [Compound 110] | 3
* COCCCn1cc(Nc2nccc(-c3cc(C#N)c4c(c3)[C@@](C)(CO)CN4)n2)c(CCC(C)C)n1 [Compound 105] | 5.5
* C=CCn1nc(C)cc1Nc1nccc(-c2cc(C#N)c3c(c2)[C@@](C)(CO)CN3)n1 [Compound 73] | 1.9
* COC(C)Cn1nc(C)cc1Nc1nccc(-c2cc(C#N)c3c(c2)[C@@](C)(CO)CN3)n1 (single isomer, unassigned) [Compound 77] | 13
* CC(C)CCn1nc(C#N)cc1Nc1nccc(-c2cc(C#N)c3c(c2)[C@@](C)(CO)CN3)n1 [Compound 93] | 11
* Cc1coc(Nc2nccc(-c3cc(C#N)c4c(c3)[C@@](C)(CO)CN4)n2)n1 [Compound 147] | 9.6
* Cn1ccc(Nc2nccc(-c3cc(C#N)c4c(c3)[C@](C)(CO)CN4)n2)n1 [Compound 34] | 10
* CC1(CO)CNc2c(C#N)cc(-c3ccnc(Nc4cc[nH]n4)n3)cc21 (centres unmarked) [Compound 21] | 2.9
* CNC(=O)c1cc(Nc2nccc(-c3cc(C#N)c4c(c3)[C@@](C)(CO)CN4)n2)nn1CCC1CC1 [Compound 201] | 3.4
* Cn1ncc(Nc2nccc(-c3cc(C#N)c4c(c3)[C@@](C)(CO)CN4)n2)c1OC1COC1 [Compound 193] | 25.1
* CNC(=O)c1cc(Nc2nccc(-c3cc(C#N)c4c(c3)[C@@](C)(CO)CN4)n2)nn1CC(F)F [Compound 197] | 2.1
* C[C@]1(CO)CNc2c(C#N)cc(-c3ccnc(Nc4cc(Cl)nn4CC4CCN(CCF)CC4)n3)cc21 [Compound 134] | 4.8
